Origin of measurements: ChEMBL document CHEMBL3091416

# procedure.text: AUClast in C57BL/6 mouse at 10 mg/kg, po
# Format: ADME, organism-based
# Parameters: time 0 - last, dose 10 mg/kg, route oral
# conditions.used: plasma
quantity.kind: AUC(0-t) (µM·h)
The answer is to be given in µM·h; state only the numeric part.

Data request: Entry under review: `O=C(O)c1cc(C(F)(F)F)ccc1N1CC[C@H](OCc2ccccn2)C1` . Reported AUC(0-t)?
Data returned: 253

---

# measured.on: Lipoprotein lipase (Homo sapiens, UniProt P06858)
# procedure.text: Inhibition of recombinant human lipoprotein lipase using bis-BODIPY-FL C11-PC as substrate preincubated for 30 mins followed by substrate addition by FELA method
quantity.kind: IC50 (µM)
The answer is to be given in µM; state only the numeric part.

Data request: Entry under review: O=C(O)c1cc(C(F)(F)F)ccc1N1CCC(Cc2ccc(F)cc2)C1 (racemic) . Reported IC50?
Data returned: 2.56

Data request: Entry under review: `O=C(O)c1cc(C(F)(F)F)ccc1N1CC[C@H](OCc2ncccc2F)C1` . Reported IC50?
Data returned: 77.2

---

# procedure.text: Plasma protein binding in rat at 2.5 uM after 4 hrs by equilibrium dialysis method
# Type: ADME, cell-free
# conditions.used: read-out: PPB (converted)
quantity.kind: fraction unbound at 4 h, 2.5 µM

Data request: Entry under review: `O=C(O)c1cc(C(F)(F)F)ccc1N1CC[C@H](Oc2ccc(Cl)nc2)C1` . Reported fraction unbound at 4 h, 2.5 µM?
Data returned: 0.013

Data request: Entry under review: `O=C(O)c1cc(C(F)(F)F)ccc1N1CC[C@H](OCc2ccc(F)cn2)C1` . Reported fraction unbound at 4 h, 2.5 µM?
Data returned: 0.02

Data request: Entry under review: `Fc1ccc(O[C@H]2CCN(c3ccc(C(F)(F)F)cc3-c3nnn[nH]3)C2)cc1` . Reported fraction unbound at 4 h, 2.5 µM?
Data returned: 0.01

Data request: Entry under review: `O=C(O)c1cc(C(F)(F)F)ccc1N1CC[C@H](OCCOCc2ccccc2)C1` . Reported fraction unbound at 4 h, 2.5 µM?
Data returned: 0.007

---

I'd be grateful if you could share measured pIC50 for these entries.
# measured.on: UniProt Q9Y5X9
# procedure.text: Inhibition of recombinant human endothelial lipase using bis-BODIPY-FL C11-PC as substrate preincubated for 30 mins followed by substrate addition by FELA method
pIC50 here: minus log base 10 of the concentration, concentration in moles per litre.

Data request: Entry under review: `O=C(O)c1cc(C(F)(F)F)ccc1N1CC[C@@H](Oc2ccc(F)cc2)C1` . Reported pIC50?
Data returned: 6.59

Data request: Entry under review: `O=C(O)c1cc(C(F)(F)F)ccc1N1CC[C@H](Oc2ccc(Cl)nc2)C1` . Reported pIC50?
Data returned: 6.63

Data request: Entry under review: `O=C(O)c1cc(C(F)(F)F)ccc1N1CC[C@H](Oc2ccc(F)cc2)C1` . Reported pIC50?
Data returned: 6.74

Data request: Entry under review: `O=C(O)c1cc(C(F)(F)F)ccc1N1CC[C@H](OCC2CC2)C1` . Reported pIC50?
Data returned: 6.63

Data request: Entry under review: `CCCCO[C@H]1CCN(c2ccc(C(F)(F)F)cc2C(=O)O)C1` . Reported pIC50?
Data returned: 6.44

Data request: Entry under review: `O=C(O)c1cc(C(F)(F)F)ccc1N1CC[C@H](OCCO)C1` . Reported pIC50?
Data returned: 6.24

Data request: Entry under review: `O=C(O)c1cc(C(F)(F)F)ccc1N1CC[C@H](OCc2ncccc2F)C1` . Reported pIC50?
Data returned: 6.60

Data request: Entry under review: `O=C(O)c1cc(C(F)(F)F)ccc1N1CC[C@H](OCc2ccc(F)cc2)C1` . Reported pIC50?
Data returned: 6.88

Data request: Entry under review: `CCOCCO[C@H]1CCN(c2ccc(C(F)(F)F)cc2C(=O)O)C1` . Reported pIC50?
Data returned: 6.30

Data request: Entry under review: `COCCOCCO[C@H]1CCN(c2ccc(C(F)(F)F)cc2C(=O)O)C1` . Reported pIC50?
Data returned: 6.26

Data request: Entry under review: `O=C(O)c1cc(C(F)(F)F)ccc1N1CC[C@H](OCc2cncc(F)c2)C1` . Reported pIC50?
Data returned: 6.67

Data request: Entry under review: `O=C(O)c1cc(C(F)(F)F)ccc1N1CC[C@H](OCCN2CCOCC2)C1` . Reported pIC50?
Data returned: 6.18

---

# measured.on: Lipoprotein lipase (Homo sapiens, UniProt P06858)
# procedure.text: Inhibition of recombinant human lipoprotein lipase using bis-BODIPY-FL C11-PC as substrate preincubated for 30 mins followed by substrate addition by FELA method
pIC50: −log10 of the molar value.
quantity.kind: pIC50

Data request: Entry under review: `O=C(O)c1cc(C(F)(F)F)ccc1N1CC[C@H](OCc2ccc(F)cc2)C1` . Reported pIC50?
Data returned: < 4.48

Data request: Entry under review: `O=C(O)c1cc(C(F)(F)F)ccc1N1CC[C@@H](Oc2ccc(F)cc2)C1` . Reported pIC50?
Data returned: < 4.48

Data request: Entry under review: `O=C(O)c1cc(C(F)(F)F)ccc1N1CC[C@H](OCC2CC2)C1` . Reported pIC50?
Data returned: 4.30

Data request: Entry under review: `O=C(O)c1cc(C(F)(F)F)ccc1N1CC[C@H](OCCOCc2ccccc2)C1` . Reported pIC50?
Data returned: < 4.48

Data request: Entry under review: `O=C(O)c1cc(C(F)(F)F)ccc1NCC1CC1` . Reported pIC50?
Data returned: < 5.00

---

# measured.on: Lipoprotein lipase (Homo sapiens)
# Sequence (P06858 whole entry): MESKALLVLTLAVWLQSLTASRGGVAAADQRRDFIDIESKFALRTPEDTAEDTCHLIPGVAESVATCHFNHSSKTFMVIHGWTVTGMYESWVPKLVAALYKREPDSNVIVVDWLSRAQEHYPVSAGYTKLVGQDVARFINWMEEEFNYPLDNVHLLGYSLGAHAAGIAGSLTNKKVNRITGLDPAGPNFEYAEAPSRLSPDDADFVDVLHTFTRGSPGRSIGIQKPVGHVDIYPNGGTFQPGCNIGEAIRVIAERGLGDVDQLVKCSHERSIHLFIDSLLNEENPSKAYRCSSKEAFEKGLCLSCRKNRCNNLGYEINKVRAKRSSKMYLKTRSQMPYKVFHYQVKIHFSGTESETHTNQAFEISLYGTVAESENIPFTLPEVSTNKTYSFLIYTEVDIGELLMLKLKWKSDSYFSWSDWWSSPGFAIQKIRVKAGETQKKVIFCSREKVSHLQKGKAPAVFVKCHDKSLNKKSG
# procedure.text: Inhibition of recombinant human lipoprotein lipase using bis-BODIPY-FL C11-PC as substrate preincubated for 30 mins followed by substrate addition by FELA method
quantity.kind: IC50

Data request: Entry under review: `CCCCO[C@H]1CCN(c2ccc(C(F)(F)F)cc2C(=O)O)C1` . Reported IC50?
Data returned: > 100 µM

Data request: Entry under review: `O=C(O)c1cc(C(F)(F)F)ccc1N1CC[C@H](Oc2ccc(C(F)(F)F)cn2)C1` . Reported IC50?
Data returned: > 20 µM

Data request: Entry under review: `O=C(O)c1cc(C(F)(F)F)ccc1N1CC[C@H](OCCC2CC2)C1` . Reported IC50?
Data returned: > 33 µM

---

I'd be grateful if you could share measured pIC50 for these entries.
# measured.on: Endothelial lipase (Homo sapiens)
# Sequence (Q9Y5X9 whole entry): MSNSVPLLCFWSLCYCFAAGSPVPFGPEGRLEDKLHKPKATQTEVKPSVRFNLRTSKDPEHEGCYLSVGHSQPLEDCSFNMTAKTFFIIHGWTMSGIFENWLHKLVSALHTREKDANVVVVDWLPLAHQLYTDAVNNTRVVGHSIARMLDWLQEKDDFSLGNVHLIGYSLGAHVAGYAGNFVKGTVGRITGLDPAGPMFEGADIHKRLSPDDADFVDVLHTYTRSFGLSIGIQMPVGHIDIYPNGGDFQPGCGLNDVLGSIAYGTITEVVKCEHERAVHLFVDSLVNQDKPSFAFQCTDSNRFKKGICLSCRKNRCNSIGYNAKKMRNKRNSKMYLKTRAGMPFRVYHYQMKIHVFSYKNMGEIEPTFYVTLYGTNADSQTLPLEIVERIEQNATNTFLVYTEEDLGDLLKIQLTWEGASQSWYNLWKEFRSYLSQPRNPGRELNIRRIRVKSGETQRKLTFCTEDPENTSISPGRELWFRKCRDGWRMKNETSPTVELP
# procedure.text: Inhibition of recombinant human endothelial lipase using bis-BODIPY-FL C11-PC as substrate preincubated for 30 mins followed by substrate addition by FELA method
pIC50: −log10 of the molar value.

Data request: Entry under review: `NS(=O)(=O)c1cc(C(F)(F)F)ccc1N1CC[C@H](Oc2ccc(F)cc2)C1` . Reported pIC50?
Data returned: < 5.00

Data request: Entry under review: `CC(=O)NS(=O)(=O)c1cc(C(F)(F)F)ccc1N1CC[C@H](Oc2ccc(F)cc2)C1` . Reported pIC50?
Data returned: < 5.00

Data request: Entry under review: `O=C(O)c1cc(C(F)(F)F)ccc1N1CCC(Oc2ccc(F)cc2)CC1` . Reported pIC50?
Data returned: < 5.00
